The measured values listed here are drawn from PubChem BioAssay (NCI).

# method.description: NCI Yeast Anticancer Drug Screen. Data for the sgs1 mgt1 strain (AID 161);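 also: 0% = growth of cultures given vehicle only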
# experimental.setup: S. cerevisiae sgs1 mgt1 strain; at 50.0 µM unless noted
Compounds without any hit were thinned out: in the full panel of roughly 79,000, 15% have a hit. Activity calls are given as the source filed them. Rule as the data show it: active = growth inhibition above about 70%; inactive = the rest.
Answer with one of the outcomes given here: Y for active, N for inactive

Answered examples (5):
molecule="CCCCCCCC1C(=O)OC2CC3C(C)=CC(=O)C(O)C3(C)C3C4(O)OCC23C1C(C)C4O (stereo not drawn)" cat=Y
molecule="Cc1ccc(S(=O)(=O)NC(CCC(=O)N2CCOCC2)C(=O)O)cc1 (stereo not drawn)" cat=N
molecule=Cc1cc2nncn2c2ccccc12 cat=N
molecule="CCN1c2ccccc2CC(CCCN(C)C)(C(N)=O)c2ccccc21 (stereo not drawn)" cat=N
molecule=O=C(Nc1ccc(S(=O)(=O)NC2CCCCC2)cc1)Oc1ccccc1C(=O)O cat=N

We now examine a further molecule.
stdin: What call does the record list for `O=C(Nc1ccc([N+](=O)[O-])cc1C(=O)O)c1ccc([N+](=O)[O-])cc1` ?
stdout: N

---

I'd appreciate it if you could supply growth inhibition values for the items below.
# method.description: NCI Yeast Anticancer Drug Screen. Data for the sgs1 mgt1 strain (AID 161);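 also: 0% = growth of cultures given vehicle only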
# experimental.setup: S. cerevisiae sgs1 mgt1 strain, stronger effect = higher value; at 50.0 µM unless noted
The panel holds about 79,000 compounds, 15% with a hit somewhere; the sample as a whole holds those more often.
Give bare numbers, in %.

molecule=CCOC(=O)C1(Cc2ccccc2)Cc2cc3c(cc2C1)CCC3 recorded_number=-23.7
molecule="Cc1c2n(c(=O)[nH]c1=O)C1OC(CO)C(O2)C1N=[N+]=[N-] (stereo unspecified)" recorded_number=-27.2
molecule="COc1cc2c(cc1OC)[C@H](c1cc(OC)c3c(c1)OCO3)[C@H]1C(=O)OCC1C2 (stereo partly specified)" recorded_number=0.2
molecule=O=c1c2ccccc2n2c(=S)[nH]nc2n1-c1ccccc1 recorded_number=-12.2
molecule="OC12c3ccccc3C1CCCCCCCCCC21OCCCO1 (stereo unspecified)" recorded_number=-42.6
molecule=Cc1ccc(-c2ccc(C)cc2C(=O)O)c(C(=O)O)c1 recorded_number=4
molecule="O=C1C=C(c2ccccc2)C(c2ccccc2)/C1=N/O (stereo unspecified)" recorded_number=2.55
molecule=CCN(CC)CCN1CC(=O)N2CCCCN2C(=O)C1 recorded_number=14.9

Fill in growth inhibition for each of the 7 molecules listed.
1. Cc1ccc(S(=O)(=O)n2cc(C#N)c(C#N)c2)cc1
2. O=c1ccc(-c2ccc(-n3ccnc3)cc2)nn1CCO
3. Cc1cnc2ccccc2n1 (tested in a mixture with another compound)
4. Cc1cc(C(C)(C)C)cc(CNC2CCCCC2)c1O
5. CC(C)(Br)C(Br)CCC(C)(Br)C(Br)CO (stereo unspecified)
6. NC(N)=N/N=C(/c1ccccc1)c1ccc(O)cc1O
7. O=C1CC2(C(=O)O)CC3CC2C(O1)C3I (stereo unspecified)

stdout:
10.8
-24.7
-5.25
-25.4
-3.8
-8.5
24.1

Fill in growth inhibition for each of the 7 molecules listed.
1. COc1ccc(-n2c(CCC(=O)O)nc3c2C(=O)c2ccccc2C3=O)cc1
2. CN(C)c1ccccc1C(=O)N/N=C\c1ccc(-c2ccccc2)cc1
3. Nc1[nH]c(=O)[nH]c(=O)c1[N+](=O)[O-]
4. CCOC(=O)c1cc2c(-c3ccccc3)c(-c3ccccc3)c(-c3ccccc3)c(-c3ccccc3)n2n1
5. COc1cc(OC)c(-c2cc(=O)c3c(OC)c(OC)c(OC)c(OC)c3o2)cc1OC
6. CCN(CC)CCOC(=O)c1cc2ccccc2s1
7. Cc1ccc(OS(=O)(=O)c2cccc(S(=O)(=O)Oc3ccc(C)cc3)c2)cc1

stdout:
1: 34; 2: 0.6; 3: -7.1; 4: 0.25; 5: -2.8; 6: 13.1; 7: 8.9

Fill in growth inhibition for each of the 6 molecules listed.
1. COCCOC(=O)c1ccc(C)cc1
2. O=c1oc2ccccc2cc1-c1nc2ccccc2c(=O)[nH]1
3. O=c1oc(-c2ccc([N+](=O)[O-])cc2Cl)nc2ccccc12
4. O=C1CCCC2CCCC(=O)N12
5. CN1CCc2nc[nH]c2C1
6. O=C(O)c1c[nH]c2cc(OCc3ccc4ccccc4c3)ccc2c1=O

stdout:
[10.6, -20.9, 31.1, -0.4, 3.2, -11.3]

Fill in growth inhibition for each of the 7 molecules listed.
1. CCc1n[nH]c(=O)n1NC(=O)c1ccccc1C(=O)O
2. COC1(OC)CC2C(=O)N(Cc3ccccc3)C1CC2S(=O)(=O)c1ccccc1 (stereo unspecified)
3. CCN(CC)CCn1c2cc3c(cc2c(=O)c2cccnc21)OCO3
4. CC(O)C(=O)N(CCO)c1ccccc1 (stereo unspecified)
5. Cc1cc(Nc2nnc(-c3cccnc3Oc3ccccc3)s2)ccc1Br
6. CC1=C(C(=O)Nc2ccccc2)C(c2ccc(N(C)C)cc2)C(C(=O)Nc2ccccc2)=C(C)N1
7. C=C(c1c(C)cccc1OC(C)=O)c1c(C)cccc1OC(C)=O

stdout:
[15.2, -16.1, -29.4, -5.5, -11.6, -6.3, -0.6]
